The reported measurements were obtained from ChEMBL document CHEMBL1126914.

Target: UniProtKB P33535
Sequence (P33535 whole entry): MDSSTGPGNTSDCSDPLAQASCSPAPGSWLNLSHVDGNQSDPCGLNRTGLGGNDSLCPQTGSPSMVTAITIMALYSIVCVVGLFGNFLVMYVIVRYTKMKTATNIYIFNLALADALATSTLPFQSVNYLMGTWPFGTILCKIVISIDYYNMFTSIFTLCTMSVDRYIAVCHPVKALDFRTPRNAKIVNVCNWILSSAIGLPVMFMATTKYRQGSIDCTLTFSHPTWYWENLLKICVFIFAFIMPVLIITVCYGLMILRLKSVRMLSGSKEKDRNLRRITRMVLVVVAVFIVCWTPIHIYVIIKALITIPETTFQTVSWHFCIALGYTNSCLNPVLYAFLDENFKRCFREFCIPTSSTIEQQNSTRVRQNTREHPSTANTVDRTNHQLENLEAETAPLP
Assay: Binding affinity was determined on mu [3H]DAGO site in rat brain synaptosomes by radioreceptor assay
pKi: −log10 of the molar value.
Mark satisfied for reported pKi of 6 or greater; mark not satisfied for anything smaller.

Known results for compounds:
CC(C)[C@H](NC(=O)[C@H](CC(=O)O)NC(=O)[C@H](Cc1ccccc1)NC(=O)[C@@H](C)NC(=O)[C@@H](N)Cc1ccc(O)cc1)C(=O)N[C@H](C(=O)NCC(N)=O)C(C)C	satisfied
CC(C)[C@H](NC(=O)[C@H](CC(=O)O)NC(=O)C1(NC(=O)[C@@H](C)NC(=O)[C@@H](N)Cc2ccc(O)cc2)CCc2ccccc2C1)C(=O)N[C@H](C(=O)NCC(N)=O)C(C)C (single isomer, unassigned; 15)	satisfied
CC(C)[C@H](NC(=O)[C@H](CC(=O)O)NC(=O)[C@H](Cc1c[nH]c2ccccc12)NC(=O)[C@@H](C)NC(=O)[C@@H](N)Cc1ccc(O)cc1)C(=O)N[C@H](C(=O)NCC(N)=O)C(C)C	satisfied

Let us examine a further case.
Quick check, pKi >= 6? CC(C)[C@H](NC(=O)[C@H](CC(=O)O)NC(=O)[C@@H](NC(=O)[C@@H](C)NC(=O)[C@@H](N)Cc1ccc(O)cc1)c1ccccc1)C(=O)N[C@H](C(=O)NCC(N)=O)C(C)C
not satisfied
